# Tested on: RNA polymerase II Serine 5 phosphorylation in A549 cells overexpressing CDK7 mutant (C312S)
# assay_name: Imaging-based cellular RNA PolII Ser5 phosphorylation assay in A549 cells overexpressing CDK7-mutant (C312S)
# Format: cell-based, human
# condition_label: Homo sapiens, A549, A549 cells overexpressing CDK7 mutant (C312S); read-out: CDK7_ A549 mutant hCDK7(pIC50) (converted)
Reported IC50 values for a set of compounds

Some solved entries appear below for comparison.
C=CC(=O)N1CCC(N2CC[C@@H](c3cc(C)c4c(c3)Nc3ncnc(N5CCOCC5)c3CO4)C2)CC1 | > 10 µM
C=CC(=O)N1CCC(N2CC(c3cc(C)c4c(c3)Nc3ncnc(N5CCS(=O)(=O)CC5)c3[C@@H](C)O4)C2)CC1 (single isomer, unassigned) | > 10 µM

Field: next compound
INPUT: Consider the compound shown here: `C=CC(=O)N1CC(N2CC(c3cc(C)c4c(c3)Nc3ncnc(N5CCS(=N)(=O)CC5)c3CO4)C2)C1` What is its recorded IC50?
OUTPUT: > 10 µM
